system: MeCP2-TBL1 interaction (MeCP2-SmBiT / TBL1-LgBiT) (Mus musculus)
Construct: expressed in transfected cells; crude lysate used as a cell-free assay
Sequence (Q9QXE7 166-527): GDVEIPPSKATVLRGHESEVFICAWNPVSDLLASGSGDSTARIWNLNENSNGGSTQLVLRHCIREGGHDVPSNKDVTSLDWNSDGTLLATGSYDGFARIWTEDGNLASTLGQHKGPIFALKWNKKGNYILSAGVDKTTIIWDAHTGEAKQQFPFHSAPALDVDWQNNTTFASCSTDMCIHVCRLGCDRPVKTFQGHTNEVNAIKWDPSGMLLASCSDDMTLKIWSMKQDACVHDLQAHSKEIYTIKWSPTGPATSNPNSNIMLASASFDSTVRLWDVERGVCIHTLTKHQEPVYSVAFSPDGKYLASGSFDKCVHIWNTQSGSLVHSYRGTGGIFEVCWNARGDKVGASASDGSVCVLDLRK
measurement.protocol: MeCP2-TBL1 NanoLuc luciferase complementation assay (cell-free, extracts of transfected HEK293 cells);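 also: each compound tested at 20 µM final concentration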
Format: binding, human
measurement.setup: primary screen of the Asinex library, sheet "Sargen output Asinex library", one well per compound, Batch Ref. 1
Text: To facilitate the discovery of inhibitors of the interaction between MeCP2 and TBL1/TBLR1, we set out to devise a simple and scalable biochemical assay for measuring the interaction between these two proteins. We initially explored the possibility of screening compound libraries using a previously established fluorescence polarization assay that depends on purified recombinant TBL1/TBLR1[26]. […]
If the reported Inhibition percent equals or exceeds 10%, assign T. If not, assign F.

INSERT INTO assay_data (molecule, assigned_category) VALUES
  ('C[C@@]12C[C@H]3[C@H](Cc4ccccc4)N[C@@H]1CCC[C@@H]2N3C(=O)c1ccnc(Cc2ccccc2F)c1', 'F'),
  ('O=C(CCCC(=O)N1CCCCC1c1n[nH]cc1-c1ccc(C(F)(F)F)cc1)Nc1ccccn1 (stereo not drawn)', 'F'),
  ('COc1ccccc1Cc1ccc(C(=O)N2CCCC2c2cncc(-c3nccn3C)n2)cn1 (stereo not drawn)', 'F'),
  ('O=C(c1ccc(CN2CCOCC2)cc1)N1CCCC1c1ccnc(-c2cccc(Cl)c2)n1 (stereo not drawn)', 'F'),
  ('CC1(C)C[C@H]2[C@H](CCCN2C(=O)CCCc2cn[nH]c2)N1c1cccc(C(F)(F)F)c1', 'T'),
  ('Cc1ccc(NC(=O)CN2[C@H](Cc3ccccc3)C[C@]3(C)NC(=O)CCC[C@H]23)cc1F', 'T'),
  ('COc1ccc2c(c1)OC(C)(C)[C@H]1CC[C@H](C)O[C@H]21', 'F'),
  ('COc1ccccc1Oc1cccc(C2CCN(C(=O)c3ccnc(N4CCOCC4)c3)CC2)n1', 'F');
